Please respond with reported self-cleavage for every item in the list.
B1: LINE1-mini (parent)
chain: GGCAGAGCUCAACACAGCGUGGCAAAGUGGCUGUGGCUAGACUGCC

Variants of: B1
assay-explanation: self-cleavage, relative activity (ratio to wild type); higher = more cleavage; in vitro, sequencing; the parent is a self-cleaving ribozyme
Numbers only.

[[record]]
construct_sequence = "GGCAGAGCUCAACACAGCGUGGCAAGGUUGCUGUGGCUAGACUGCC [A26G G29U]"
measured = 1.23

[[record]]
construct_sequence = "GGCGGAGCUCAACACAGCGUGGCAAAGUUGCUGUGGCUAGACUGCC [A4G G29U]"
measured = 0.63


For each of the items listed, what is its self-cleavage?
1. GGCAGAGCUCUACACAGCGUGGCAAAGUGGCUGUGGCUAUACUGCC [A11U G40U]
2. GGCAGAGCUCAACACAGCGUGGCCAAGUGGCUGUGGCGAGACUGCC [A24C U38G]
3. GGCAGAGCUCAACAAAGCGUGGCAAAGUGGCUGUGGCUAGACUUCC [C15A G44U]
4. GACAGAGCUCAACACAGCGUGGCAAAGUGGCUGUGGCUAGACUACC [G2A G44A]
5. GGCAGAGCUCAACACAGCGUGGCAAAAUGGCUGUGGCUAGACUGUC [G27A C45U]
6. GGCAGAGCUCAACACAGCGAGGCAAAGUGGCUCUGGCUAGACUGCC [U20A G33C]

0.04
0.01
0.04
0.49
1.88
0.04

Go through the list and state self-cleavage for each entry.
1. GGCACUGCUCAACACAGCGUGGCAAAGUGGCUGUGGCUAGACUGCC [G5C A6U]
2. GGCAGAGCUCAACACAGCGUGGCUAAGCGGCUGUGGCUAGACUGCC [A24U U28C]

[0.06, 0.69]

Please give self-cleavage for each item listed below.
1. GGCAGAGUGCAACACAGCGUGGCAAAGUGGCUGUGGCUAGACUGCC [C8U U9G]
2. GGCAGACCUCAGCACAGCGUGGCAAAGUGGCUGUGGCUAGACUGCC [G7C A12G]

0.09
0.06

List reported self-cleavage for each of these variants:
1. GGCAGAGCUCAAAACAGCGAGGCAAAGUGGCUGUGGCUAGACUGCC [C13A U20A]
2. GGCUGAGCUCAACACAGCGUGGCAAAGUGGCUGUGGCAAGACUGCC [A4U U38A]
3. GGCAGAGAUAAACACAGCGUGGCAAAGUGGCUGUGGCUAGACUGCC [C8A C10A]
4. GGCAGAGCUCCACACAGCGUGGCAAAGUGUCUGUGGCUAGACUGCC [A11C G30U]
5. GGCAUAGCUCAACACAGCGUGGCAAAGUGGCUGUGGCUAGACUUCC [G5U G44U]
6. GGCAGAGCUCAUCACAGCGUGGCAAAGUGGCUGUCGCUAGACUGCC [A12U G35C]
7. GGCAGAGCUCAACACCGCGUGGCCAAGUGGCUGUGGCUAGACUGCC [A16C A24C]

[0.11, 0.12, 0.04, 0.05, 0.06, 0.05, 0.07]
